# measurement_description: Solubility in SGF and FaSSIF
# Assay type: physicochemical
# experimental_parameters: SGF, pH 1.6, simulated gastric fluid
test_readout: solubility (µg/mL)
Numbers only, in µg/mL.

molecule="Cc1cc(Oc2cncnc2)cc(C(=O)Nc2ccc(F)cn2)n1 [drawing 263]" measured_number=205

Kindly consider the entry below.
Item: Cc1cc(Oc2cncc(F)c2)cc(C(=O)Nc2ccc(F)cn2)n1 [drawing 264] | solubility: 70

----------
# measurement_description: Mouse PO PK (plasma and brain concentration)
# Assay type: in vivo
# experimental_parameters: mouse, brain, po, 10 mg/kg, Mouse PO 10 mg/kg, 0.25 h; read-out: Free Brain Concentration
test_readout: concentration at 0.25 h (nM)
One number for each entry, in nM.

compound="Cc1cc(Oc2cncc(F)c2)cc(C(=O)Nc2ccc(F)cn2)n1 [drawing 270]" measured_number=2.6

Item: Cc1cc(Oc2cncnc2)cc(C(=O)Nc2ccc(F)cn2)n1 [drawing 269] | concentration at 0.25 h: 15.2

----------
# measured_on: rat mGluR5 (Rattus norvegicus, UniProt P31424)
# Sequence (P31424 21-1171 isoform P31424-2 limits assumed): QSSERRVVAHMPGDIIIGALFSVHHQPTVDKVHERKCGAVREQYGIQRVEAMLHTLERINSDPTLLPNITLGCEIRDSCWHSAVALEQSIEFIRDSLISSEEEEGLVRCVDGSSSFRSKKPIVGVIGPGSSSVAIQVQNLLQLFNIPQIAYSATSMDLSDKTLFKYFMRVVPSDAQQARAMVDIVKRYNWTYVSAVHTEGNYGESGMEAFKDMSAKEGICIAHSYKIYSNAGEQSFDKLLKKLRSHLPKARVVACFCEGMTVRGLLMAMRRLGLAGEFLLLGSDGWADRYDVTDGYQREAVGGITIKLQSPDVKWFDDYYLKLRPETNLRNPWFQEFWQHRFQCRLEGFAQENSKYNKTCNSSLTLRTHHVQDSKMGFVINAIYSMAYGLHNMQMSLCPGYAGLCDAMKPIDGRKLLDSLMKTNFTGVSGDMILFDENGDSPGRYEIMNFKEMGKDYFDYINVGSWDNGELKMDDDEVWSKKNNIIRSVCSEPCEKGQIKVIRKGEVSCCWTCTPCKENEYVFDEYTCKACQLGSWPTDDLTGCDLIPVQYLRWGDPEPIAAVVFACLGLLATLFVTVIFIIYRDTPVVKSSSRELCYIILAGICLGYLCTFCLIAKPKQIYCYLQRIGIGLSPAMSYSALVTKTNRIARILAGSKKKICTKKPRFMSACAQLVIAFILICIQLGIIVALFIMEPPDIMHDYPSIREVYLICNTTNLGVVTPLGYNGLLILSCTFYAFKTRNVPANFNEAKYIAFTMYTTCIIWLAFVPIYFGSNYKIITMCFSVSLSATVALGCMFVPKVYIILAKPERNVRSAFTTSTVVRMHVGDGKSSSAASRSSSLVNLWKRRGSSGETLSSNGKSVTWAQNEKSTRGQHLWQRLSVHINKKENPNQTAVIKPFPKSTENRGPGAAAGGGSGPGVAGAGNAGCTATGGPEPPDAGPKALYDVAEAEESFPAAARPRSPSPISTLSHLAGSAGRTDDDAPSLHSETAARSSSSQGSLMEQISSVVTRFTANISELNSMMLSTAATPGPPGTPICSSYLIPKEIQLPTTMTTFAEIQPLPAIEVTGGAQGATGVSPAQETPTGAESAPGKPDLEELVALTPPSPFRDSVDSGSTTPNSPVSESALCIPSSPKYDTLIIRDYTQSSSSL
# measurement_description: mGluR5 calcium mobilization assay (HEK 293A cells, FDSS)
# experimental_parameters: HEK cells transfected with rat mGluR5; antagonism of glutamate EC80 response; Table 1
test_readout: pIC50
Numbers only, as −log10 of the molar value.

Solved cases (3 shown):
sample_smiles=CCc1cc(Oc2cncnc2)cc(C(=O)Nc2ccc(F)c(C)n2)n1 test_readout=pIC50 measured_number=7.57
sample_smiles=Cc1cccc(NC(=O)c2cc(Oc3cncc(Cl)c3)cc(C)n2)n1 test_readout=pIC50 measured_number=8.17
sample_smiles=Cc1ccc(Oc2cc(C)nc(C(=O)Nc3cccc(F)n3)c2)cn1 test_readout=pIC50 measured_number=7.19

Answer for every listed entry: what is its pIC50? The entries follow.
1. Cc1ccc(NC(=O)c2cc(Oc3cccnc3)cc(C)n2)nc1
2. CCc1cccc(NC(=O)c2cc(Oc3cncnc3)cc(CC)n2)n1
3. Cc1ccc(NC(=O)c2cc(Oc3ccc(C)nc3)cc(C)n2)nc1

1. 8.00
2. 7.72
3. 6.02

Answer for every listed entry: what is its pIC50? The entries follow.
1. Cc1ccc(Oc2cc(C)nc(C(=O)Nc3cccc(C)n3)c2)cn1
2. Cc1cc(Oc2cncc(Cl)c2)cc(C(=O)Nc2cc(C#N)ccn2)n1
3. CCc1cccc(NC(=O)c2cc(Oc3cccnc3)cc(C)n2)n1
4. Cc1ccc(Oc2cc(C)nc(C(=O)Nc3ccc(Cl)cn3)c2)cn1
5. Cc1cc(Oc2cccnc2)cc(C(=O)Nc2ccc(Cl)cn2)n1
6. Cc1cc(Oc2cnc(C)nc2)cc(C(=O)Nc2cc(F)ccn2)n1

[7.89, 6.26, 7.89, 6.20, 8.26, 5.72]

Answer for every listed entry: what is its pIC50? The entries follow.
1. CCc1cc(Oc2cncnc2)cc(C(=O)Nc2ccc(C)cn2)n1
2. Cc1cccc(NC(=O)c2cc(Oc3ccc(C(F)(F)F)nc3)cc(C)n2)n1
3. Cc1ccc(Oc2cc(C)nc(C(=O)Nc3cc(F)ccn3)c2)cn1
4. Cc1cc(Oc2cncc(C#N)c2)cc(C(=O)Nc2ccc(F)cn2)n1
5. CCc1cc(Oc2cncnc2)cc(C(=O)Nc2ccc(Cl)cn2)n1

1: 7.57; 2: 6.75; 3: 5.74; 4: 8.27; 5: 7.60

----------
Give measured clearance for each item. Keep answers brief.
# measurement_description: Rat IV/PO pharmacokinetics
# experimental_parameters: in vivo; Rat IV/PO
Kindly report the value followed by its unit.

compound="Cc1cc(Oc2cncc(F)c2)cc(C(=O)Nc2ccc(F)cn2)n1 [drawing 266]" result="9.15 mL/min/kg"

Kindly consider the entry below.
Item: Cc1cc(Oc2cncnc2)cc(C(=O)Nc2ccc(F)cn2)n1 [drawing 265] | clearance: 19.2 mL/min/kg

----------
# measurement_description: Cynomolgus monkey IV/PO pharmacokinetics
# experimental_parameters: in vivo; Cynomolgus monkey IV/PO; read-out: Vss
test_readout: Vd (L/kg)
Numbers only, in L/kg.

Item: Cc1cc(Oc2cncnc2)cc(C(=O)Nc2ccc(F)cn2)n1 [drawing 267] | Vd: 2.5

----------
# measurement_description: Mouse PO PK (plasma and brain concentration)
# Type: in vivo
# experimental_parameters: mouse, brain, po, 10 mg/kg, Mouse PO 10 mg/kg, 0.25 h; read-out: Brain Concentration
Give measured concentration at 0.25 h for each item. Keep answers brief.
Give bare numbers, in nM.

molecule="Cc1cc(Oc2cncnc2)cc(C(=O)Nc2ccc(F)cn2)n1 [drawing 269]" measured_number=195

Item: Cc1cc(Oc2cncc(F)c2)cc(C(=O)Nc2ccc(F)cn2)n1 [drawing 270] | concentration at 0.25 h: 176

----------
# measurement_description: Mouse PO PK (plasma and brain concentration)
# Format: in vivo
# experimental_parameters: mouse, brain, po, 10 mg/kg, Mouse PO 10 mg/kg, 0.5 h; read-out: Brain Concentration
Give measured concentration at 0.5 h for each item. Keep answers brief.
Answers are plain numbers, in nM.

compound="Cc1cc(Oc2cncnc2)cc(C(=O)Nc2ccc(F)cn2)n1 [drawing 269]" measured_number=345

Kindly consider the entry below.
Item: Cc1cc(Oc2cncc(F)c2)cc(C(=O)Nc2ccc(F)cn2)n1 [drawing 270] | concentration at 0.5 h: 143

----------
# measurement_description: Solubility in SGF and FaSSIF
# Type: physicochemical
# experimental_parameters: FaSSIF, pH 6.5, fassif
test_readout: solubility (µg/mL)
Numbers only, in µg/mL.

compound="Cc1cc(Oc2cncnc2)cc(C(=O)Nc2ccc(F)cn2)n1 [drawing 263]" measured_number=47

Kindly consider the entry below.
Item: Cc1cc(Oc2cncc(F)c2)cc(C(=O)Nc2ccc(F)cn2)n1 [drawing 264] | solubility: 7

----------
# measurement_description: Cynomolgus monkey IV/PO pharmacokinetics
# experimental_parameters: in vivo; Cynomolgus monkey IV/PO
test_readout: clearance (mL/min/kg)
Numbers only, in mL/min/kg.

molecule="Cc1cc(Oc2cncnc2)cc(C(=O)Nc2ccc(F)cn2)n1 [drawing 267]" measured_number=15.4

Kindly consider the entry below.
Item: Cc1cc(Oc2cncc(F)c2)cc(C(=O)Nc2ccc(F)cn2)n1 [drawing 268] | clearance: 13.2

----------
# measurement_description: Cynomolgus monkey IV/PO pharmacokinetics
# experimental_parameters: in vivo; Cynomolgus monkey PO
Give measured Cmax for each item. Keep answers brief.
Answers are plain numbers, in nM.

molecule="Cc1cc(Oc2cncc(F)c2)cc(C(=O)Nc2ccc(F)cn2)n1 [drawing 268]" measured_number=1360

Kindly consider the entry below.
Item: Cc1cc(Oc2cncnc2)cc(C(=O)Nc2ccc(F)cn2)n1 [drawing 267] | Cmax: 858

----------
# measurement_description: Mouse PO PK (plasma and brain concentration)
# Type: in vivo
# experimental_parameters: mouse, plasma, po, 10 mg/kg, Mouse PO 10 mg/kg, 0.25 h; read-out: Plasma Concentration
test_readout: concentration at 0.25 h
Kindly report the value followed by its unit.

Answer for every listed entry: what is its concentration at 0.25 h? The entries follow.
1. Cc1cc(Oc2cncc(F)c2)cc(C(=O)Nc2ccc(F)cn2)n1 [drawing 270]
2. Cc1cc(Oc2cncnc2)cc(C(=O)Nc2ccc(F)cn2)n1 [drawing 269]

["48.3 nM", "33.2 nM"]

----------
# measurement_description: Mouse PO PK (plasma and brain concentration)
# Assay type: in vivo
# experimental_parameters: mouse, brain, po, 10 mg/kg, Mouse PO 10 mg/kg, 0.5 h; read-out: Free Brain Concentration
Give measured concentration at 0.5 h for each item. Keep answers brief.
Answers are plain numbers, in nM.

compound="Cc1cc(Oc2cncc(F)c2)cc(C(=O)Nc2ccc(F)cn2)n1 [drawing 270]" test_readout="concentration at 0.5 h" measured_number=2.1

Item: Cc1cc(Oc2cncnc2)cc(C(=O)Nc2ccc(F)cn2)n1 [drawing 269] | concentration at 0.5 h: 26.9

----------
# measurement_description: Mouse PO PK (plasma and brain concentration)
# Type: in vivo
# experimental_parameters: mouse, brain, po, 10 mg/kg, Mouse PO 10 mg/kg, 1 h; read-out: Brain Concentration
test_readout: concentration at 1 h
Kindly report the value followed by its unit.

Item: Cc1cc(Oc2cncnc2)cc(C(=O)Nc2ccc(F)cn2)n1 [drawing 269] | concentration at 1 h: 9.9 nM

----------
Give measured pIC50 for each item. Keep answers brief.
# measured_on: rat mGluR5 (Rattus norvegicus, UniProt P31424)
# Construct: expressed in transfected cells
# measurement_description: mGluR5 calcium mobilization assay (HEK 293A cells, FDSS)
# Assay type: cell-based
# experimental_parameters: HEK cells transfected with rat mGluR5; antagonism of glutamate EC80 response; Table 1
Numbers only, as −log10 of the molar value.

sample_smiles=CCc1cc(Oc2cncc(F)c2)cc(C(=O)Nc2cccc(F)n2)n1 measured_on="rat mGluR5 (Rattus norvegicus, UniProt P31424)" measured_number=7.74

Answer for every listed entry: what is its pIC50? The entries follow.
1. Cc1cc(Oc2ccc(C(F)(F)F)nc2)cc(C(=O)Nc2ccc(F)cn2)n1
2. Cc1cc(Oc2cccnc2)cc(C(=O)Nc2cccc(F)n2)n1
3. Cc1cc(Oc2cncc(Cl)c2)cc(C(=O)Nc2ccc(F)c(C)n2)n1
4. CCc1cc(Oc2cncnc2)cc(C(=O)Nc2cccc(F)n2)n1
5. CCc1cc(Oc2cncnc2)cc(C(=O)Nc2ccc(C#N)cn2)n1

[6.59, 8.47, 7.85, 7.62, 6.81]

Answer for every listed entry: what is its pIC50? The entries follow.
1. CCc1cc(Oc2cncc(F)c2)cc(C(=O)Nc2ccc(F)c(C)n2)n1
2. Cc1cc(Oc2cncc(Cl)c2)cc(C(=O)Nc2ccc(C#N)cn2)n1

1: 6.80; 2: 7.96
